molecular target: Recombinant human PHOSPHO1 (Homo sapiens); experiment: PHOSPHO1 phosphatase assay (BIOMOL Green, β-glycerol phosphate); settings: recombinant human PHOSPHO1 50 ng; 0-100 µM; 2.5 mM β-glycerol phosphate; read-out: IC50, inhibition of PHOSPHO1 activity
Sequence (Q8TCT1 whole entry): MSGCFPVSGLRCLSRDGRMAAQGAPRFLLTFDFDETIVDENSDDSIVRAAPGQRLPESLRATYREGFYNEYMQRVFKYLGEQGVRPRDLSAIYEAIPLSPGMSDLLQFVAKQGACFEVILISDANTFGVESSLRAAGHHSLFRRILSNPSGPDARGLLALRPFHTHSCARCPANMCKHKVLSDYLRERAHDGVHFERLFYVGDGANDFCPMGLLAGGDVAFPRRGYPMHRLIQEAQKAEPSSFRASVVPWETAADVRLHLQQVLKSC
property-label: IC50 (nM)
State the answer as a number, implicitly in nM.

For this compound ( COc1ccnc(C[S+]([O-])c2nc3ccc(OC(F)F)cc3[nH]2)c1OC (stereo not drawn) ), measured IC50 is 19300

For this compound ( Cc1c(OCC(F)(F)F)ccnc1C[S+]([O-])c1nc2ccccc2[nH]1 (stereo not drawn) ), measured IC50 is 2770

For this compound ( COc1ccc2[nH]c([S+]([O-])Cc3ncc(C)c(OC)c3C)nc2c1 (stereo not drawn) ), measured IC50 is 2800

Entry source: paper PMC8531085
